For each of the compounds below, state its MBC.
# System: Staph. aureus 29213
# protocol: microbe, parasite or virus in culture
# condition: Staphylococcus aureus, 29213, read-out: MBC, Without peptide
Please give a number only; it is taken to be in µg/mL.

# input Look up MBC: `CN(C)[C@@H]1C(O)=C(C(N)=O)C(=O)[C@@]2(O)C(O)=C3C(=O)c4c(O)cccc4[C@@](C)(O)[C@H]3C[C@@H]12`
# output 10

# input Entry `CC1(C)S[C@@H]2[C@H](NC(=O)[C@H](N)c3ccccc3)C(=O)N2[C@H]1C(=O)O` : reported MBC = ?
# output 5

# input Fill in the blank: the reported MBC of `CC1(C)S[C@@H]2[C@H](NC(=O)[C@H](C(=O)O)c3ccsc3)C(=O)N2[C@H]1C(=O)O` is ____.
# output 25

# input Fill in the blank: the reported MBC of `CCN1CCN(C(=O)N[C@@H](C(=O)N[C@@H]2C(=O)N3C(C(=O)O)=C(CSc4nnnn4C)CS[C@H]23)c2ccc(O)cc2)C(=O)C1=O` is ____.
# output 10

# input Give the measured MBC of `NC[C@H]1O[C@H](O[C@H]2[C@H](O)[C@@H](O[C@H]3O[C@H](CO)[C@@H](O)[C@H](N)[C@H]3O)[C@H](N)C[C@@H]2N)[C@H](N)C[C@@H]1O` .
# output 25

Origin of measurements: patent US20050209157A1
